In this section, each of the molecules is paired with its reported MIC.
Tested on: Pseudomonas aeruginosa ATCC 9027
experiment: ≥ marks a high value that may be exact or a test limit, other limits are often not marked, values filed in µg/mL are converted to µM
resultType: MIC (µM)

molecule	unitAbbreviation	observedValue
CC[C@H](C)[C@H](NC(=O)[C@H](CCCCN)NC(=O)[C@H](CCCCN)NC(=O)[C@H](C)NC(=O)[C@@H](NC(=O)[C@H](C)NC(=O)[C@H](C)NC(=O)[C@H](CC(C)C)NC(=O)[C@H](CCCCN)NC(=O)[C@H](CCCCN)NC(=O)[C@H](CC(C)C)NC(=O)[C@H](CC(N)=O)NC(=O)[C@@H](N)CC(C)C)C(C)C)C(=O)N[C@@H](CC(C)C)C(N)=O [LNLKKLAAVAKKIL]	µM	4
CC[C@H](C)[C@H](NC(=O)[C@H](CCCCN)NC(=O)[C@H](CCCCN)NC(=O)[C@H](C)NC(=O)[C@H](CC(C)C)NC(=O)[C@H](CCCCN)NC(=O)[C@H](C)NC(=O)[C@H](CC(C)C)NC(=O)[C@H](CC(C)C)NC(=O)[C@H](CCCCN)NC(=O)[C@H](C)NC(=O)[C@@H](N)Cc1ccccc1)C(=O)N[C@@H](CC(C)C)C(N)=O [FAKLLAKLAKKIL]	µM	68.6
CC(C)C[C@H](NC(=O)[C@H](C)NC(=O)[C@H](CC(C)C)NC(=O)[C@H](C)NC(=O)[C@H](CCCCN)NC(=O)[C@H](CCCCN)NC(=O)[C@H](C)NC(=O)[C@H](CC(C)C)NC(=O)[C@H](CCCCN)NC(=O)[C@H](C)NC(=O)[C@H](CC(C)C)NC(=O)[C@H](CCCCN)NC(=O)[C@H](CCCCN)NC(=O)[C@H](C)NC(=O)[C@@H](N)Cc1ccccc1)C(N)=O [FAKKLAKLAKKALAL]	µM	15.5

====

System: Pseudomonas aeruginosa PAO1
experiment: ≥ marks a high value that may be exact or a test limit, other limits are often not marked, values filed in µg/mL are converted to µM

smiles	MIC
CC(C)C[C@H](NC(=O)[C@H](Cc1cnc[nH]1)NC(=O)[C@H](CO)NC(=O)[C@H](CC(N)=O)NC(=O)[C@H](CCCCN)NC(=O)[C@H](CCCCN)NC(=O)[C@H](Cc1ccccc1)NC(=O)[C@H](Cc1c[nH]c2ccccc12)NC(=O)[C@H](CCCCN)NC(=O)CNC(=O)[C@H](Cc1c[nH]c2ccccc12)NC(=O)[C@@H](N)CCCN=C(N)N)C(=O)N[C@@H](CO)C(N)=O	> 80 µM

====

Test system: Salmonella typhimurium

molecule	systemName	MIC [µM]
CC(C)C[C@H](NC(=O)[C@H](CCCN=C(N)N)NC(=O)[C@@H]1CCCN1C(=O)[C@H](Cc1cnc[nH]1)NC(=O)[C@@H]1CCCN1C(=O)[C@@H]1CCCN1C(=O)[C@H](CCCN=C(N)N)NC(=O)[C@@H]1CCCN1C(=O)[C@H](CCC(N)=O)NC(=O)[C@@H]1CCCN1)C(=O)O [PQPRPPHPRL]	Salmonella typhimurium	16

====

System: Pseudomonas aeruginosa KCTC 1637
experiment: ≥ marks a high value that may be exact or a test limit, other limits are often not marked, values filed in µg/mL are converted to µM
resultType: MIC (µM)

smiles	unitAbbreviation	observedValue
CC[C@H](C)[C@H](NC(=O)[C@H](CCCCN)NC(=O)[C@H](CO)NC(=O)[C@H](Cc1ccccc1)NC(=O)[C@H](CC(C)C)NC(=O)[C@H](CCCCN)NC(=O)[C@H](CCC(=O)O)NC(=O)[C@H](CC(C)C)NC(=O)[C@H](CCCN=C(N)N)NC(=O)[C@H](CCCCN)NC(=O)[C@H](Cc1ccccc1)NC(=O)[C@@H](NC(=O)[C@@H](N)CCCCN)C(C)C)C(N)=O	µM	1.56
CC[C@H](C)[C@H](NC(=O)[C@H](CCCCN)NC(=O)[C@H](CCCCN)NC(=O)[C@H](Cc1ccccc1)NC(=O)[C@H](CC(C)C)NC(=O)[C@H](CCCCN)NC(=O)[C@H](Cc1c[nH]c2ccccc12)NC(=O)[C@@H](N)CCCCN)C(=O)N[C@@H](CO)C(=O)N[C@@H](CCCCN)C(=O)N[C@@H](Cc1ccccc1)C(=O)N[C@@H](CC(C)C)C(=O)N[C@@H](Cc1cnc[nH]1)C(=O)N[C@@H](CC(C)C)C(=O)N[C@@H](C)C(=O)N[C@@H](CCCCN)C(=O)N[C@@H](CCCCN)C(=O)N[C@@H](Cc1ccccc1)C(N)=O	µM	6.25

====

Below are MIC values measured for Escherichia coli D21.
resultType: MIC

compound	systemName	observedValue
CC(C)C[C@H](NC(=O)[C@H](CC(C)C)NC(=O)[C@H](CC(C)C)NC(=O)[C@H](CC(C)C)NC(=O)[C@H](CC(C)C)NC(=O)[C@H](CC(C)C)NC(=O)[C@H](CC(C)C)NC(=O)[C@H](CC(C)C)NC(=O)[C@H](CC(C)C)NC(=O)[C@H](CCCCN)NC(=O)[C@H](CCCCN)NC(=O)[C@@H](N)CCCCN)C(=O)N[C@@H](CCCCN)C(=O)N[C@@H](CCCCN)C(=O)N[C@@H](CCCCN)C(N)=O [KKKLLLLLLLLLKKK]	Escherichia coli D21	≥ 50 µM
CC(C)C[C@H](NC(=O)[C@H](CCCCN)NC(=O)[C@H](CCCCN)NC(=O)[C@H](Cc1ccccc1)NC(=O)[C@H](CC(C)C)NC(=O)[C@H](CCCCN)NC(=O)[C@H](CCCCN)NC(=O)[C@H](Cc1ccccc1)NC(=O)[C@H](CCCCN)NC(=O)[C@H](CCCCN)NC(=O)[C@H](CCCN=C(N)N)NC(=O)[C@H](Cc1ccccc1)NC(=O)[C@H](CCCN=C(N)N)NC(=O)[C@H](CCCCN)NC(=O)[C@H](Cc1ccccc1)NC(=O)[C@H](CCCN=C(N)N)NC(=O)CN)C(=O)N[C@@H](CO)C(N)=O [GRFKRFRKKFKKLFKKLS]	Escherichia coli D21	4 µM
CC[C@H](C)[C@H](NC(=O)[C@@H]1CCCN1C(=O)[C@H](CCCN=C(N)N)NC(=O)[C@@H]1CCCN1C(=O)[C@H](CCCN=C(N)N)NC(=O)[C@H](Cc1ccc(O)cc1)NC(=O)[C@H](CC(N)=O)NC(=O)[C@@H]1CCCN1C(=O)[C@H](CCCN=C(N)N)NC(=O)[C@@H]1CCCN1C(=O)[C@@H](N)CCCN=C(N)N)C(=O)N[C@@H](Cc1ccc(O)cc1)C(=O)N[C@@H](CCCN=C(N)N)C(=O)N1CCC[C@H]1C(N)=O [RPRPNYRPRPIYRP]	Escherichia coli D21	2.12 µM
CC(C)C[C@H](NC(=O)[C@H](Cc1ccc(O)cc1)NC(=O)[C@@H]1CCCN1C(=O)[C@@H]1CCCN1C(=O)[C@H](CCCN=C(N)N)NC(=O)[C@@H]1CCCN1C(=O)[C@H](CC(N)=O)NC(=O)[C@H](CC(N)=O)NC(=O)[C@@H](N)CC(N)=O)C(=O)N1CCC[C@H]1C(=O)N[C@@H](CCCN=C(N)N)C(=O)N1CCC[C@H]1C(=O)N[C@@H](CCCN=C(N)N)C(=O)N1CCC[C@H]1C(=O)N1CCC[C@H]1C(=O)O [NNNPRPPYLPRPRPP]	Escherichia coli D21	≥ 64 µM

====

Below are MIC values measured for Candida albicans.

smiles	systemName	MIC
CC[C@H](C)[C@H](NC(=O)[C@H](CCCN=C(N)N)NC(=O)[C@@H](NC(=O)[C@H](Cc1c[nH]c2ccccc12)NC(=O)[C@H](CCCN=C(N)N)NC(=O)[C@H](CCCN=C(N)N)NC(=O)[C@@H](N)CC(C)C)[C@@H](C)CC)C(=O)N[C@@H](CCCN=C(N)N)C(=O)N[C@@H](Cc1c[nH]c2ccccc12)C(=O)O	Candida albicans	10.7 µM
NCCCC[C@H](NC(=O)[C@H](CCCN=C(N)N)NC(=O)[C@H](Cc1c[nH]c2ccccc12)NC(=O)[C@H](Cc1c[nH]c2ccccc12)NC(=O)[C@H](CCCN=C(N)N)NC(=O)[C@@H](N)CCCCN)C(=O)N[C@@H](Cc1c[nH]c2ccccc12)C(=O)N[C@@H](Cc1c[nH]c2ccccc12)C(=O)N[C@@H](CCCN=C(N)N)C(=O)O	Candida albicans	5.4 µM

====

Below are MIC values measured for Bacillus cereus.
resultType: MIC

smiles	resultType	observedValue
CC[C@H](C)[C@H](NC(=O)[C@H](CCSC)NC(=O)[C@H](CO)NC(=O)[C@H](Cc1ccccc1)NC(=O)[C@@H](NC(=O)[C@H](CO)NC(=O)[C@@H]1CCCN1C(=O)[C@@H](NC(=O)[C@@H](NC(=O)[C@H](CCCCN)NC(=O)[C@H](CO)NC(=O)[C@H](C)NC(=O)[C@H](CC(C)C)NC(=O)[C@H](CCCCN)NC(=O)CNC(=O)[C@@H](NC(=O)[C@@H](NC(=O)[C@@H]1CCCN1)C(C)C)[C@@H](C)CC)C(C)C)C(C)C)C(C)C)C(=O)N[C@@H](CCCCN)C(=O)N[C@@H](CCCN=C(N)N)C(=O)O	MIC	≥ 119 µM
CC[C@H](C)[C@H](NC(=O)[C@H](CC(C)C)NC(=O)[C@H](CO)NC(=O)[C@H](C)NC(=O)[C@@H](NC(=O)[C@H](C)NC(=O)CNC(=O)[C@H](CCCCN)NC(=O)[C@H](Cc1ccccc1)NC(=O)[C@H](CCCCN)NC(=O)[C@@H](NC(=O)[C@H](C)NC(=O)[C@@H](NC(=O)[C@@H](NC(=O)[C@@H]1CCCN1C(=O)[C@H](CO)NC(=O)[C@H](CO)NC(=O)[C@@H](NC(=O)CN)C(C)C)[C@@H](C)CC)C(C)C)C(C)C)C(C)C)C(=O)N[C@@H](CCCCN)C(=O)O	MIC	≥ 130 µM
CC[C@H](C)[C@H](NC(=O)[C@H](CO)NC(=O)[C@H](CS)NC(=O)[C@H](Cc1ccc(O)cc1)NC(=O)[C@@H](NC(=O)[C@H](C)NC(=O)[C@@H]1CCCN1C(=O)[C@H](Cc1ccccc1)NC(=O)[C@@H](NC(=O)[C@H](CCCCN)NC(=O)[C@H](CO)NC(=O)[C@H](C)NC(=O)[C@@H](NC(=O)[C@H](CCCN=C(N)N)NC(=O)CNC(=O)[C@H](CC(C)C)NC(=O)[C@H](C)NC(=O)[C@@H](N)CO)C(C)C)C(C)C)C(C)C)C(=O)N[C@H](C(=O)N[C@@H](CCCCN)C(=O)O)[C@@H](C)O	MIC	≥ 122 µM
CC[C@H](C)[C@H](NC(=O)[C@H](CCCCN)NC(=O)CNC(=O)[C@@H](NC(=O)[C@H](C)NC(=O)[C@H](CO)NC(=O)[C@@H](N)CC(C)C)C(C)C)C(=O)N[C@@H](C)C(=O)N[C@@H](CO)C(=O)N[C@@H](CCCCN)C(=O)N[C@H](C(=O)N[C@H](C(=O)N1CCC[C@H]1C(=O)N[C@@H](CO)C(=O)N[C@H](C(=O)N[C@H](C(=O)NCC(=O)N[C@@H](C)C(=O)N[C@@H](Cc1ccccc1)C(=O)N[C@@H](CCCCN)C(=O)O)[C@@H](C)CC)C(C)C)C(C)C)C(C)C	MIC	≥ 130 µM
CC[C@H](C)[C@H](NC(=O)CNC(=O)[C@@H](NC(=O)[C@H](CCCCN)NC(=O)[C@H](C)NC(=O)[C@@H](NC(=O)[C@H](C)NC(=O)[C@H](CO)NC(=O)[C@H](CO)NC(=O)[C@H](Cc1ccccc1)NC(=O)[C@H](CC(C)C)NC(=O)[C@@H](NC(=O)[C@@H]1CCCN1C(=O)[C@@H](N)CC(C)C)C(C)C)[C@@H](C)CC)C(C)C)C(=O)N[C@@H](CCCCN)C(=O)N[C@@H](CC(C)C)C(=O)NCC(=O)N[C@@H](C)C(=O)N[C@@H](CCCCN)C(=O)N[C@H](C(=O)O)C(C)C	MIC	≥ 127 µM
CC(C)C[C@H](NC(=O)[C@@H](N)Cc1ccccc1)C(=O)NCC(=O)N[C@H](C(=O)N[C@H](C(=O)N[C@@H](Cc1ccccc1)C(=O)N[C@@H](CCCCN)C(=O)N[C@@H](CCCCN)C(=O)N[C@@H](C)C(=O)N[C@@H](CO)C(=O)N[C@@H](CCCCN)C(=O)N[C@H](C(=O)N[C@@H](Cc1ccccc1)C(=O)N[C@@H](CCCCN)C(=O)N[C@@H](C)C(=O)N[C@H](C(=O)N[C@@H](Cc1ccccc1)C(=O)NCC(=O)N[C@@H](CCCCN)C(=O)N[C@H](C(=O)O)C(C)C)C(C)C)C(C)C)C(C)C)C(C)C	MIC	14.5 µM

These measurements were taken from DBAASP.
